# Tgt: PIN1-CD (catalytic peptidyl-prolyl isomerase domain, devoid of the PIN1 WW domain) (Homo sapiens)
# Construct: PIN1 peptide containing the catalytic peptidyl-prolyl isomerase domain but devoid of the PIN1 WW domain
# Sequence (Q13526 52-163 limits assumed): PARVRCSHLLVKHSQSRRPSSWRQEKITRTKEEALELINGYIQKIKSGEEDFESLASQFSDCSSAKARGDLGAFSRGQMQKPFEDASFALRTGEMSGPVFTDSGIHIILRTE
# Assay Name: Pin1 peptidyl-prolyl isomerase assay (protease-coupled, spectrophotometric)
# Type: biochemical
# Measurement Setup: catalytic PPIase domain without WW domain; 15° C., pH 7.5, 100 μM Suc-AEPF-pNA
pKi: −log10 of the molar value.
Please respond with reported pKi for every item in the list.

{"Compound": "O=C(O[C@@H](COP(=O)(O)O)Cc1cccc(F)c1)c1cc2ccccc2s1 [Example 54]", "pKi": "> 6.00"}

Provide pKi for all items below, preserving their order.
1. O=C(N[C@@H](COP(=O)(O)O)Cc1ccccc1)c1cccc(Cl)c1 [Example 25-8]
2. O=C(N[C@@H](COP(=O)(O)O)CC1CCCCC1)c1ccc2ccccc2c1 [Example 33]

1. > 6.00
2. > 5.00
